Target: GNRR-6 (Caenorhabditis elegans, UniProt Q19399)
Sequence (Q19399 1-400): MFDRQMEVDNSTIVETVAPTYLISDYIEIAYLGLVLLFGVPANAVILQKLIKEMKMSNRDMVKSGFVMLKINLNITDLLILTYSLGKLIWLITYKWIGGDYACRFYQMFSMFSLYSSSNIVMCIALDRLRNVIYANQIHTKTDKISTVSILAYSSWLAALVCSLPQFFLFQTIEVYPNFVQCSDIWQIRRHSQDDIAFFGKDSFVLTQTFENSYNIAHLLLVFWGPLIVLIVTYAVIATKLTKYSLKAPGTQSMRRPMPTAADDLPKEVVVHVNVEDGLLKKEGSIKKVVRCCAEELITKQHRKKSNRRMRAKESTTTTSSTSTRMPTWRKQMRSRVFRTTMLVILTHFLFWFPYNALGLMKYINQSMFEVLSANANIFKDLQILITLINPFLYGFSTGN
Assay: Receptor activation assay (aequorin calcium mobilization), GNRR-6 co-expressed with promiscuous Gα16 in CHO cells
Settings: CHO cells stably expressing apo-aequorin and Gα16, transiently transfected receptor; aequorin luminescence relative to total calcium response; mean EC50, N = 5–7 replicates; 95% confidence interval given
pEC50: −log10 of the molar value. Where a SMILES comes first, the peptide text is derived from it.
Observed Property: pEC50

| Compound | Obs Value |
| --- | --- |
| CC[C@H](C)[C@H](NC(=O)[C@H](C)NC(=O)[C@@H](NC(=O)[C@@H](N)CO)[C@@H](C)CC)C(=O)NCC(=O)N[C@@H](CCCNC(=N)N)C(=O)N[C@@H](C)C(=O)NCC(=O)N[C@@H](Cc1ccccc1)C(=O)N[C@@H](CCCNC(=N)N)C(=O)N1CCC[C@H]1C(N)=O [NLP-22] (H-SIAIGRAGFRP-NH2; N-terminus assumed) | 8.39 |
| CSCC[C@H](NC(=O)[C@@H](N)CO)C(=O)N[C@@H](C)C(=O)N[C@@H](Cc1ccc(O)cc1)C(=O)NCC(=O)N[C@@H](CCCNC(=N)N)C(=O)N[C@@H](CCC(N)=O)C(=O)NCC(=O)N[C@@H](Cc1ccccc1)C(=O)N[C@@H](CCCNC(=N)N)C(=O)N1CCC[C@H]1C(N)=O [NLP-2-3] (H-SMAYGRQGFRP-NH2; N-terminus assumed) | 6.77 |
| CC[C@H](C)[C@H](NC(=O)[C@H](C)NC(=O)[C@H](CCSC)NC(=O)[C@@H](N)CO)C(=O)NCC(=O)N[C@@H](CCCNC(=N)N)C(=O)N[C@@H](C)C(=O)NCC(=O)N[C@@H](CCSC)C(=O)N[C@@H](CCCNC(=N)N)C(=O)N1CCC[C@H]1C(N)=O [NLP-23-2] (H-SMAIGRAGMRP-NH2; N-terminus assumed) | 8.22 |
| CSCC[C@H](NC(=O)[C@H](C)NC(=O)[C@H](CCSC)NC(=O)[C@@H](N)CO)C(=O)NCC(=O)N[C@@H](CCCNC(=N)N)C(=O)N[C@@H](CC(C)C)C(=O)NCC(=O)N[C@@H](CC(C)C)C(=O)N[C@@H](CCCNC(=N)N)C(=O)N1CCC[C@H]1C(N)=O [NLP-2-2] (H-SMAMGRLGLRP-NH2; N-terminus assumed) | 6.27 |
| CC[C@H](C)[C@H](NC(=O)[C@@H](N)CO)C(=O)N[C@@H](C)C(=O)N[C@@H](CC(C)C)C(=O)NCC(=O)N[C@@H](CCCNC(=N)N)C(=O)N[C@@H](CO)C(=O)NCC(=O)N[C@@H](Cc1ccccc1)C(=O)N[C@@H](CCCNC(=N)N)C(=O)N1CCC[C@H]1C(N)=O [NLP-2-1] (H-SIALGRSGFRP-NH2; N-terminus assumed) | 6.87 |
